Test system: CEM cells HIV-1 protection, formazan growth assay
Test: NCI AIDS Antiviral Assay
Conditions: measured here: growth of uninfected CEM cells
pIC50: −log10 of the molar value. Where a SMILES comes first, the peptide text is derived from it.
Classification field: yes = pIC50 at or over 4; no = pIC50 under 4.

Nc1ccc([C@H]2C(=O)N[C@H]3CCC[C@H]32)cc1 : no
O=C(CSc1nnc(-c2ccc(N=Cc3ccc(Cl)cc3)cc2)o1)Nc1ccccc1 : yes
NCC(=O)NC1(C(=O)O)CCCC1 (HELM PEPTIDE1{G.[O=C(O)C1(N[*:1])CCCC1]}$$$$V2.0) : no
CCOc1cnn(-c2ccccc2)c(=O)c1SCc1ccc(Cl)c(Cl)c1 : yes
CC1(C)OC(CCC#N)CN1C(=O)OCc1ccccc1 (configuration not stated) : no
CC(=O)C(=[N+]=[N-])C(=O)OC(C)(C)C#N : no
CCOC(=O)NC(N(C)C(C(C)C)P(=O)(OCC)OCC)(C(F)(F)F)C(F)(F)F (configuration not stated) : no
CC(=O)Nc1ccccc1/C=C/c1ccccn1 : no
Nc1c(F)c(F)c2c(c1F)N(CCCCCl)c1ccccc1S2 : yes
CC1(C)N=C(/C(Cl)=[N+](/[O-])C(=O)c2ccc(Cl)cc2)C(C)(C)N1O : yes

Q) Determine whether this compound has pIC50 no lower than 4: `Nc1nc(Cl)c(/C=N\O)c(NCC2(CO)CCC2)n1`
A) yes

Q) Determine whether this compound has pIC50 no lower than 4: CC[C@H]1CN2CCc3c([nH]c4ccccc34)C2C[C@@H]1CCO (some centres not stated)
A) no

Q) Determine whether this compound has pIC50 no lower than 4: CCCCCc1cc(O)c2c3c(c(=O)oc2c1)CP(=O)(c1ccccc1)CC3 (configuration not stated)
A) yes

Q) Determine whether this compound has pIC50 no lower than 4: Nc1ncnc2c1ncn2CC1COC(CO)O1 (configuration not stated)
A) no

Q) Determine whether this compound has pIC50 no lower than 4: CSC1(CC(=O)N2CCCCC2)C(=O)Nc2ccccc21 (configuration not stated)
A) no

Q) Determine whether this compound has pIC50 no lower than 4: `CCN(CC)CCOC(NC(C)=O)(c1ccccc1)c1ccccc1`
A) no

====

System: CEM cells HIV-1 protection, formazan growth assay
Experiment: NCI AIDS Antiviral Assay
Settings: measured here: growth of uninfected CEM cells
endpoint_label: log10 of IC50 (log10 of the value in µM)
For clarity, the numbers are log10 values of IC50 expressed in µM.

CCOC(=O)N1CCN(c2ccc3ccc(N)nc3n2)CC1 : 2.17

Q) Report log10 of IC50 for `O=C1/C(=C\c2ccccc2O)Cc2ccccc21` please.
A) 1.45

Q) Report log10 of IC50 for `O=C1c2ccccc2/C=C\C(c2ccccc2)=N/N1c1ccccc1Cl` please.
A) 1.10

Q) Report log10 of IC50 for `Cc1sc2c(c1C)C(=O)c1cccn1-2` please.
A) 2.23

Q) Report log10 of IC50 for CC(=O)OC(/C=C1/C=CC(=O)O1)COC(=O)c1ccccc1 (configuration not stated) please.
A) 0.77

Q) Report log10 of IC50 for O=C1C2C3C4C1C1C2[C@H](OCc2ccccc2)C3C1[C@H]4OCc1ccccc1 (some centres not stated) please.
A) 1.63

Q) Report log10 of IC50 for `Cc1cc(S(=O)(=O)NC2=NCCCN2)c(S)cc1Cl` please.
A) 1.81

====

Test system: CEM cells HIV-1 protection, formazan growth assay
Assay: NCI AIDS Antiviral Assay
Details: measured here: growth of uninfected CEM cells
pIC50 values for the molecules below.
Units for pIC50: none; it is -log10 of a concentration expressed in mol/L.

COC(=O)C1(Cc2ccc3c(c2)CCC3)Cc2ccccc2C1=O (stereo unspecified) : 4.97
NC(=S)N/N=C1\CCCc2ccccc21 : 4.09
Cc1ccc(S(=O)(=O)Oc2coc(CO)cc2=O)cc1 : 4.91
CCO/N=C(/N)c1ncn(Cc2ccccc2)c1NCC(OCC)OCC : 3.47
CC(=O)Oc1c(OC(C)=O)c(-c2ccc(O)c(O)c2)c(O)c(O)c1-c1ccc(O)cc1 : 4.56

Now, please, on to the next molecule.
Q) Report pIC50 for `O=S(=O)(ON=C1C=CC(=NOS(=O)(=O)c2ccccc2)C=C1)c1ccccc1` please.
A) 5.99

====

System: CEM cells HIV-1 protection, formazan growth assay
Assay: NCI AIDS Antiviral Assay
Conditions: measured here: growth of uninfected CEM cells
endpoint_label: pIC50
Units for pIC50: none; it is -log10 of a concentration expressed in mol/L.

Consider the following illustrative entries.
CCSSC12CCCN1C(=O)C1CCCN1C2=O (centres undefined) : 4.80
CCCCCCCCCCCCCCCC1(OC)C[N+](C)(C)CCO1 (centres undefined) : 6.00
O=S(=O)(c1ccccc1)c1cccc2c1NCCC2 : 4.02
CC(=O)OCCCOCn1c(Cc2ccccc2)c(C(C)C)c(=O)[nH]c1=O : 4.05
CNC(=O)OCCN1c2ccccc2Sc2ccccc21 : 4.11
COc1c2c(cc3ccc(=O)oc13)C(Cl)C(Cl)O2 (centres undefined) : 4.66

Q) What measured pIC50 is associated with COC(=O)C1=C(C(=O)OC)C23C=CC=CC24C(C(=O)OC)=C(C(=O)OC)C4C1C3 (centres undefined) on CEM cells HIV-1 protection, formazan growth assay?
A) 3.81

Q) What measured pIC50 is associated with CN(C)C(=S)OC(Cn1cncn1)c1ccc(Cl)cc1Cl (centres undefined) on CEM cells HIV-1 protection, formazan growth assay?
A) 3.37

Q) What measured pIC50 is associated with `O=c1cc(-c2ccccc2)oc2ccc(-c3ccc4oc(-c5ccccc5)cc(=O)c4c3)cc12` on CEM cells HIV-1 protection, formazan growth assay?
A) 4.56

Q) What measured pIC50 is associated with `CCc1cccc(C)c1NC(=O)CCc1nnc2s/c(=C\c3cccc4ccccc34)c(=O)n12` on CEM cells HIV-1 protection, formazan growth assay?
A) 3.72

Q) What measured pIC50 is associated with CCc1c2cc(OC)c(OC)cc2cc2c3cc(OC)c(OC)cc3cc[n+]12 (tested in a mixture with another compound) on CEM cells HIV-1 protection, formazan growth assay?
A) 4.47

====

System: CEM cells HIV-1 protection, formazan growth assay
Assay: NCI AIDS Antiviral Assay;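 active = compounds giving half or more protection of infected cells from virus-caused growth loss, again on retest; inactive = the rest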
Select the matching outcome among Y for active, N for inactive

Example entries and their recorded answers appear below.
O=Cc1ccccc1OCCOc1cc(OCCOc2ccccc2C=O)c(OCCOc2ccccc2C=O)cc1OCCOc1ccccc1C=O : N
CN(C)CCNC(=O)Cc1ccccc1Nc1c(Cl)cccc1Cl : N
c1ccc(CCN(Cc2nc3ccccc3[nH]2)Cc2nc3ccccc3[nH]2)cc1 : N

Q) Please indicate how the test categorized COc1cc(C2SC(N)=Nc3c2c(C)nn3C(=O)c2ccc(Cl)cc2)ccc1O (stereo not drawn) .
A) N

Q) Please indicate how the test categorized CC1(C)OCC2OC3(c4nc(C#N)c(N)o4)OC(C)(C)OC3C2O1 (stereo not drawn) .
A) N

Q) Please indicate how the test categorized CCC(CCCN)Nc1cc(OC)cc2cccnc12 (stereo not drawn) .
A) N

Q) Please indicate how the test categorized `C=C[C@@]1(O)CCCC[C@@H]1CC(Sc1ccccc1)Sc1ccccc1` .
A) N

Q) Please indicate how the test categorized `O=c1[nH]nc(Cl)c2c(O)c3ccccc3c(O)c12` .
A) N

Q) Please indicate how the test categorized `CCC[CH2][Sn]([CH2]CCC)([O]C(=O)c1c(F)cccc1F)[O]C(=O)c1c(F)cccc1F` .
A) N

Q) Please indicate how the test categorized Nc1ccc(C(=O)NN2C(=O)C(Cl)C2c2ccc(O)cc2)cc1 (stereo not drawn) .
A) N

====

IC50 values for the compounds below.
Test system: CEM cells HIV-1 protection, formazan growth assay
Assay: NCI AIDS Antiviral Assay
Settings: measured here: growth of uninfected CEM cells

N#CCCN(CCC#N)c1ccc(/C=C(/NC(=O)c2cc([N+](=O)[O-])ccc2Cl)C(=O)NN)cc1 : > 10.7 µM
CC1(C)CC(=O)C(C=NC(=O)c2ccncc2)=C(O)C1 : > 200 µM

Q) What measured IC50 is associated with CC1C(c2cc(C(C)(C)C)c(O)c(C(C)(C)C)c2)c2cc3c(cc2OC1N1CCOCC1)OCO3 (stereo unspecified) on CEM cells HIV-1 protection, formazan growth assay?
A) > 200 µM

Q) What measured IC50 is associated with `S=C(Nc1ccccc1)Nc1ccccc1S` on CEM cells HIV-1 protection, formazan growth assay?
A) 112 µM

Q) What measured IC50 is associated with CCOC(=O)C(C)C(CCC#N)(C(=O)OCC)C(=O)OCC (stereo unspecified) on CEM cells HIV-1 protection, formazan growth assay?
A) > 200 µM

Q) What measured IC50 is associated with `COc1ccc(C2=Nc3ccccc3NC(=O)C2)cc1` on CEM cells HIV-1 protection, formazan growth assay?
A) > 37.2 µM
